- Tested on: Src kinase (Homo sapiens, UniProt P12931)
- Construct: purchased Upstate Bioteolnology (sic; Upstate Biotechnology); later HMR stock 27597-019E1 #14-117
- Sequence (P12931 whole entry): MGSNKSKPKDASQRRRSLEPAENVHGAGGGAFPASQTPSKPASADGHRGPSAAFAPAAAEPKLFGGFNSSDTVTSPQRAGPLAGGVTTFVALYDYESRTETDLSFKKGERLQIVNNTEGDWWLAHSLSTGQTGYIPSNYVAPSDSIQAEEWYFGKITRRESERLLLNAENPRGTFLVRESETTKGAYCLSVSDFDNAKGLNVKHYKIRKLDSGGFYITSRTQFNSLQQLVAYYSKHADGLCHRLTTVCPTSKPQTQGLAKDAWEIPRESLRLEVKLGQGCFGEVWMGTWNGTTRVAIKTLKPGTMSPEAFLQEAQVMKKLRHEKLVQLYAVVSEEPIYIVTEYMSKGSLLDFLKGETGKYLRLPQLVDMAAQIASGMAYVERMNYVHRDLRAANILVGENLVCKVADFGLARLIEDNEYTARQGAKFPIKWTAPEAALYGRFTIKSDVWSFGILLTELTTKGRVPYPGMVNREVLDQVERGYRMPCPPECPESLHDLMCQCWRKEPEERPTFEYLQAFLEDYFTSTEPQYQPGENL
- Test description: Phosphorylation assay of Src kinase inhibitors (radiometric, 96 well filter plate)
- Type: biochemical
- Cond: duplicates, tested in the range of 400-0.098 µM; 10 µM peptide substrate (FIYGAFKKKKNH2), 5 µM unlabeled ATP, room temperature 30 min; read-out: IC50
pIC50: −log10 of the molar value.
Entry flag: rule met if pIC50 reaches 6; rule not met if it does not.

# Chemical structure, Tested on, Class assignment
records = [
    ("NC(=O)CNC(=O)c1cc2ccccc2cc1OCCCCNC(=O)[C@@H](N)Cc1ccc(Br)cc1", "Src kinase (Homo sapiens, UniProt P12931)", "rule met"),
    ("NC(=O)CNC(=O)c1cc2ccccc2cc1OCc1ccc(N)cc1", "Src kinase (Homo sapiens, UniProt P12931)", "rule not met"),
]

Let's switch to this compound now.
I'd appreciate it if you could say whether NC(=O)CNC(=O)c1cc2ccccc2cc1OCCCCNC(=O)[C@@H](N)Cc1ccccn1 has pIC50 at least equal to 6.
rule not met

* * *

- Tested on: Src kinase (Homo sapiens, UniProt P12931)
- Construct: purchased Upstate Bioteolnology (sic; Upstate Biotechnology); later HMR stock 27597-019E1 #14-117
- Test description: Phosphorylation assay of Src kinase inhibitors (radiometric, 96 well filter plate)
- Assay type: biochemical
- Cond: duplicates, tested in the range of 400-0.098 µM; 10 µM peptide substrate (FIYGAFKKKKNH2), 5 µM unlabeled ATP, room temperature 30 min; read-out: IC50
pIC50: −log10 of the molar value.
So basically: pIC50 at 5 or higher? That is true (1). Lower than 5? That is false (0).

# bool: pIC50 of NC(=O)CNC(=O)c1cc2ccccc2cc1OCCCCNC(=O)[C@@H](N)Cc1ccc(I)cc1 >= 5
true (1)

* * *

- Tested on: Src kinase (Homo sapiens, UniProt P12931)
- Construct: purchased Upstate Bioteolnology (sic; Upstate Biotechnology); later HMR stock 27597-019E1 #14-117
- Test description: Phosphorylation assay of Src kinase inhibitors (radiometric, 96 well filter plate)
- Format: biochemical
- Cond: duplicates, tested in the range of 400-0.098 µM; 10 µM peptide substrate (FIYGAFKKKKNH2), 5 µM unlabeled ATP, room temperature 30 min; read-out: IC50
pIC50: −log10 of the molar value.
Lab note: compare pIC50 against 5. Equal or greater, write criterion met. Smaller, write criterion not met.

# Compound, Class assignment
rows = [
    ("CC(C)C[C@H](N)C(=O)NCCCCOc1cc2ccccc2cc1C(=O)NCC(N)=O", "criterion met"),
]

pIC50 >= 5 for N#C/C(=C\c1ccc(O)cc1)C(=O)NCCCCOc1cc2ccccc2cc1C(=O)NCC(N)=O ?
criterion not met

Does NC(=O)CNC(=O)c1cc(-c2ccccc2)ccc1OCCCCNC(=O)C(N)Cc1ccc(O)cc1 (stereo in doubt) have a reported pIC50 of at least 5?
criterion not met

Determine whether measured pIC50 meets or exceeds 5 for NC(=O)CNC(=O)c1cc2ccccc2cc1OCCCCNC(=O)[C@@H](N)C(c1ccccc1)c1ccccc1
criterion met

* * *

- Tested on: Src kinase (Homo sapiens, UniProt P12931)
- Construct: purchased Upstate Bioteolnology (sic; Upstate Biotechnology); later HMR stock 27597-019E1 #14-117
- Test description: Phosphorylation assay of Src kinase inhibitors (radiometric, 96 well filter plate)
- Assay type: biochemical
- Cond: duplicates, tested in the range of 400-0.098 µM; 10 µM peptide substrate (FIYGAFKKKKNH2), 5 µM unlabeled ATP, room temperature 30 min; read-out: IC50
Listing: IC50 of selected molecules
Please respond with the number in µM and leave the unit unwritten.

Some molecules with recorded IC50:
# Molecule, Tested on, Measurement label, Value units, Value reported
data = [
    ("NC(=O)CNC(=O)c1cc2ccccc2cc1OCCCCNC(=O)[C@@H](N)Cc1cccnc1", "Src kinase (Homo sapiens, UniProt P12931)", "IC50", "µM", 9.6),
    ("C[C@@H](NC(=O)c1cc2ccccc2cc1OCCCCNC(=O)[C@H](N)Cc1ccc(O)cc1)C(N)=O (stereo in doubt)", "Src kinase (Homo sapiens, UniProt P12931)", "IC50", "µM", 12),
    ("NC(=O)CNC(=O)c1cc2ccccc2cc1NC(=O)CCCCNC(=O)[C@@H](N)Cc1ccc(O)cc1", "Src kinase (Homo sapiens, UniProt P12931)", "IC50", "µM", 209),
    ("C[C@H](N)C(=O)NCCCCOc1cc2ccccc2cc1C(=O)NCC(N)=O", "Src kinase (Homo sapiens, UniProt P12931)", "IC50", "µM", 101),
    ("NC(=O)CNC(=O)c1cc2ccccc2cc1OCCCCNC(=O)[C@H](N)CSCc1ccccc1", "Src kinase (Homo sapiens, UniProt P12931)", "IC50", "µM", 2.23),
    ("CNC(=O)C(Cc1ccc(C#N)cc1)C(=O)NCCCCOc1cc2ccccc2cc1C(=O)NCC(N)=O (stereo not shown)", "Src kinase (Homo sapiens, UniProt P12931)", "IC50", "µM", 6),
]

Continue with the molecule presented below.
Would you mind telling me what IC50 value was observed for NCC(=O)NCCCCOc1cc2ccccc2cc1C(=O)NCC(N)=O ?
68

Data origin, for the record: patent US20040014676A1
